All values here come from ChEMBL document CHEMBL1146871.

- experimental system: D(2) dopamine receptor (Homo sapiens)
- Sequence (P14416 whole entry): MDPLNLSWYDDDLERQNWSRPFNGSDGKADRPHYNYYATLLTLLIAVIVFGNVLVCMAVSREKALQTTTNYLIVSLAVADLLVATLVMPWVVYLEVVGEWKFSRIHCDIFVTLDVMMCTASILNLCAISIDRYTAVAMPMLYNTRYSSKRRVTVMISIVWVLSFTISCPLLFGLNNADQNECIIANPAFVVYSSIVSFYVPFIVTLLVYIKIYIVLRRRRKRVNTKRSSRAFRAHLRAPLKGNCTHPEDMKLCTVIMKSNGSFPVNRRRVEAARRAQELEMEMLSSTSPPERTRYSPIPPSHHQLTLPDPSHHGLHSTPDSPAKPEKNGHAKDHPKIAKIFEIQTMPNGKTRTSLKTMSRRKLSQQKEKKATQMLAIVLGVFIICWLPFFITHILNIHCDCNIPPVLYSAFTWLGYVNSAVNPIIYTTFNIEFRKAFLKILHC
- run description: Displacement of [3H]methylspiperone from human dopamine D2 receptor expressed in CHO cells
- Type: cell-based
pKi: −log10 of the molar value.
reported metric: pKi

> print(dat)
                           smiles.structure  measured
1  Cc1cccc(C)c1C(=O)NN1c2ccc(Cl)cc2N=C(N2CCN(C)CC2)c2ccccc21      6.54
2  CN1CCN(C2=Nc3cc(Cl)ccc3N(NC(=O)c3cccnc3Cl)c3ccccc32)CC1      6.20
3  CN1CCN(C2=Nc3cc(Cl)ccc3N(NC(=O)c3cccs3)c3ccccc32)CC1      5.83
4  CN1CCN(C2=Nc3cc(Cl)ccc3N(NC(=O)c3cccc(Cl)c3)c3ccccc32)CC1      6.74
5  CN1CCN(C2=Nc3cc(Cl)ccc3N(NC(=O)c3c(N)cccc3Cl)c3ccccc32)CC1      6.30

1. CCCC(CCC)C(=O)NN1c2ccc(Cl)cc2N=C(N2CCN(C)CC2)c2ccccc21
2. CN1CCN(C2=Nc3cc(Cl)ccc3N(NC(=O)c3ccccc3NC3CCCCC3)c3ccccc32)CC1
INPUT: Param pair: 1 , 2 . Output: the one whose pKi is numerically greater. Return value: the label identifying the chosen record.
OUTPUT: 1
(1: 5.73, 2: 5.42)

1. CN1CCN(C2=Nc3cc(Cl)ccc3N(NC(=O)c3ccco3)c3ccccc32)CC1
2. Cc1ccc(C(=O)NN2c3ccc(Cl)cc3N=C(N3CCN(C)CC3)c3ccccc32)cc1
INPUT: For the pair 1 and 2 , which member has the lower pKi number? Return value: the label identifying the chosen record.
OUTPUT: 2
(2: 5.82, 1: 6.08)

====

- experimental system: D(1A) dopamine receptor (Homo sapiens)
- Sequence (P21728 whole entry): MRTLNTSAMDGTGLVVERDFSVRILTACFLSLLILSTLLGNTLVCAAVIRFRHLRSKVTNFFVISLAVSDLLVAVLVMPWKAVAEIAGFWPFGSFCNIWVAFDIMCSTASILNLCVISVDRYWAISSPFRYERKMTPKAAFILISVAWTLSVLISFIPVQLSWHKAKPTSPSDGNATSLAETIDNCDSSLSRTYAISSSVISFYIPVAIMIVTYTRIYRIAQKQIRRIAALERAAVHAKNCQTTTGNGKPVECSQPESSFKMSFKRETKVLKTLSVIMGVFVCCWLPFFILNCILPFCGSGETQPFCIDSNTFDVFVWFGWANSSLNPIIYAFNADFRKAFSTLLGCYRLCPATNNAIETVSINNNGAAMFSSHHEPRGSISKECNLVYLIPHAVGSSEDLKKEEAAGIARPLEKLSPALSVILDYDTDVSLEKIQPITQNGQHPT
- run description: Activity at dopamine D1 receptor by cAMP assay
- Type: functional
reported metric: Kb (nM)

A selection of reference data follows.
> print(dat)
                           smiles.structure  unit.label  measured
1  CN1CCN(C2=Nc3cc(Cl)ccc3N(NC(=O)c3cccc4ccccc34)c3ccccc32)CC1          nM         2
2  CN1CCN(C2=Nc3cc(Cl)ccc3N(NC(=O)c3ccccc3Cl)c3ccccc32)CC1          nM       2.8
3  CN1CCN(C2=Nc3cc(Cl)ccc3N(NC(=O)c3c(N)cccc3Cl)c3ccccc32)CC1          nM       1.7
4  Cc1cccc(C)c1C(=O)NN1c2ccc(Cl)cc2N=C(N2CCN(C)CC2)c2ccccc21          nM       2.8

A. CN1CCN(C2=Nc3cc(Cl)ccc3N(NC(=O)c3c(F)cccc3C(F)(F)F)c3ccccc32)CC1
B. COc1cccc(OC)c1C(=O)NN1c2ccc(Cl)cc2N=C(N2CCN(C)CC2)c2ccccc21
C. Cc1cccc(N)c1C(=O)NN1c2ccc(Cl)cc2N=C(N2CCN(C)CC2)c2ccccc21
INPUT: Sort these molecules on Kb so the largest reading comes first. Record the ranking as a list of labels in the requested order.
OUTPUT: C, A, B

====

- run description: AUC in Sprague-Dawley rat plasma at 10 mg/kg, po
- Assay type: ADME, organism-based
- Set-up: dose 10 mg/kg, route oral
reported metric: AUC (ng·h/mL)

> print(dat)
                           smiles.structure  reported.metric  unit.label  measured
1  CN1CCN(C2=Nc3cc(Cl)ccc3N(NC(=O)c3ccccc3Cl)c3ccccc32)CC1              AUC     ng·h/mL      2660

A. COc1cccc(OC)c1C(=O)NN1c2ccc(Cl)cc2N=C(N2CCN(C)CC2)c2ccccc21
B. CN1CCN(C2=Nc3cc(Cl)ccc3N(NC(=O)c3cccc4ccccc34)c3ccccc32)CC1
INPUT: Param pair: A , B . Output: the one whose AUC is numerically greater. Return value: the label identifying the chosen record.
OUTPUT: B
(B: 12900 ng·h/mL, A: 2670 ng·h/mL)
